Measured z-score accompanies every entry in the list below.
Assay: MM1S cell viability effects, profiling panel, calcein-AM fluorescence, 48 h, basal (AID 1165);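 note: viability of MM1S multiple myeloma cells under basal unstimulated conditions; test concentration not given here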
Settings: higher = more signal
readout: z-score

chemical-smiles: C=CCNC(=O)[C@H]1[C@@H]2C(=O)O[C@@H](c3ccccc3)[C@@H](c3ccccc3)N2[C@@H](c2ccc(OCCO)cc2)[C@]12C(=O)N(C(=O)OCCOC)c1ccc(C#CCC(C(=O)OC)C(=O)OC)cc12
readout: z-score
value-measured: 0.495

chemical-smiles: COC(=O)C(CC#Cc1ccc2c(c1)[C@]1(C(=O)N2)[C@H](C(=O)N2CCN(c3ncccn3)CC2)[C@H]2C(=O)O[C@H](c3ccccc3)[C@H](c3ccccc3)N2[C@@H]1c1ccc(O)cc1)C(=O)OC
readout: z-score
value-measured: 0.142

chemical-smiles: COc1cc(Cc2cc3c(c(CCc4ccccc4)n2)[Si](C(C)C)(C(C)C)O[C@H]3c2ccccc2)cc(OC)c1OC
readout: z-score
value-measured: -3.14

FYI, the data here is from PubChem BioAssay.
